- Test Name: folding stability dG unfold (combined trypsin and chymotrypsin); higher = more stable
# folding stability dG unfold listing for each entry below
Property Label: folding stability dG unfold (kcal/mol)

[[record]]
sequence_string = "SAGGSAGGSAGGKYKILKIEKYKLPNGGYYYKALVYEEENGEWKEIYAKANSAKNFKFESAGGSAGGSAGGS [r10_326_TrMRF]"
display_unit = "kcal/mol"
inequality_symbol = "="
test_value = 1.08

[[record]]
sequence_string = "SAGGGPAAEVARLLREAGYDVEVEVEVFSREENPPLLPGEPLVVRVRVYATPPTGPRRPLGEFVVPVGSAGG [r13_874_TrMRF]"
display_unit = "kcal/mol"
inequality_symbol = "="
test_value = 2.17

[[record]]
sequence_string = "SAGGSAGGSAGGKILVITAKIEDIPEIIEAAKKLGIDSVIIDIPETKEKIIITKDSVKLISAGGSAGGSAGG [r7_564_TrMRF]"
display_unit = "kcal/mol"
inequality_symbol = "="
test_value = 1.63

[[record]]
sequence_string = "SAGGSAGGSWIPLPDGYLIKITEVVPGGIRIKFPDMGNEITIPPGMPIKIKIIPVKDPDGEPISAGGSAGGS [r20_105_TrROS]"
display_unit = "kcal/mol"
inequality_symbol = "="
test_value = 0.9

[[record]]
sequence_string = "SANPGKPVTIEIPVEEIRQKLNEENPDKPLTPSELKDLAKELIQRQGFPFKDVEIKSVNPGNGWIKIKVSAG [r14_303_TrROS]"
display_unit = "kcal/mol"
inequality_symbol = "="
test_value = 0.279

[[record]]
sequence_string = "SAGPPPVKVTVTADYVIEDGKPIVTYTLTFPDGSTTTVTSDPETLVEWLKQHYPDIDVLNFNSGTAPAASAG [r5_25_JUSTAS]"
display_unit = "kcal/mol"
inequality_symbol = "="
test_value = 3.77

[[record]]
sequence_string = "SAGGSAGGSAGGSEPWYVRIQIPDGNQIMFPPGSEAKIEIPKEEKDIRITEVIPADDIKSAGGSAGGSAGGS [r4_122_TrROS]"
display_unit = "kcal/mol"
inequality_symbol = "<"
test_value = -1

